Ref: patent US20260176365A1

assayed_system: hGP130-his (Sino Biological, Catalog# 10974) (human) (UniProt P40189)
Sequence (P40189 23-619): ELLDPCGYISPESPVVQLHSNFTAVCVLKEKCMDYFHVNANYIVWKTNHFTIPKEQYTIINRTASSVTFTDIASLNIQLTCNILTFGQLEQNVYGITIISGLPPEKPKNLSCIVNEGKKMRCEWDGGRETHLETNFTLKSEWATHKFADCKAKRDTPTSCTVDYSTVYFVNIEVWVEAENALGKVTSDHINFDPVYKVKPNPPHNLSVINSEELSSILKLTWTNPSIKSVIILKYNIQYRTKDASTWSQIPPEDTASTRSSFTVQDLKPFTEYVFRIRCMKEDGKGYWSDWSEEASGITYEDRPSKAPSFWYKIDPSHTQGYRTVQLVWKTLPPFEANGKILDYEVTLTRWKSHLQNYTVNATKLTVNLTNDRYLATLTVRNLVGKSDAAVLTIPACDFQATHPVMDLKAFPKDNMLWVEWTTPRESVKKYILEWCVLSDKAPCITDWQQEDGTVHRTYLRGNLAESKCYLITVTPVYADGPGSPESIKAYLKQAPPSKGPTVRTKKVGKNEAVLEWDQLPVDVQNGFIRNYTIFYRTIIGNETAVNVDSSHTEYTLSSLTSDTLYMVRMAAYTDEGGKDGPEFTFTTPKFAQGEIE
test_name: SPR (Biacore T200), Mono-Fc VHH captured on Protein A chip, hGP130-his in solution, 1:1 fit
Attribute: pKd
Lab note: report pKd as minus log10 of the concentration in molar units, number only.

binder: mgp130_VHH6 Mono-Fc VHH (Fc fusion, not shown: a dimerising Fc or GST) QVQLQESGGGLVQPGGSLRLSCAASGFTLSTYWMYWVRQAPGKGPEWVSAVSRGGFNTYYADSVKGRFTISRDNAKNTVYLQMNSLKPEDTAVYYCMSSVSFYGWPPDRVPSPTGQGTQVTVSS
pKd: 6.64
//
binder: mgp130_VHH16 Mono-Fc VHH (Fc fusion, not shown: a dimerising Fc or GST) QVQLQESGGGLVQPGGSLRLSCAASGFTFRNYAMSWVRQAPGKGLEWVSAINSGGGSTYYADSVKGRFTISRDNAKNTLYLQMNSLKPEDTAMYYCAKHVTGDYDPSLRYEYNYWSQGTQVTVSS
pKd: 7.76
//
binder: mgp130_VHH13 Mono-Fc VHH (Fc fusion, not shown: a dimerising Fc or GST) QVQLQESGGGSVQPGGSLRLSCAASGFTFSTYDMSWVRQAPGKGLEWVSTINYSGSSTYYVDSVLGRFTIARDNAKNTLYLQMNNLQTEDTAVYYCASVKERRSNGHPIVFGDRGQGTQVTVSS
pKd: 7.45

Qu. Find the recorded pKd belonging to mgp130_VHH5 Mono-Fc VHH (Fc fusion, not shown: a dimerising Fc or GST) QVQLQESGGGSVQAGGSLRLSCVISGFTYRQTFMGWFRQVVGKEREGVAAISTGGGSTIYADSVKGRFTISQDSSKDTVYLEMNGLKLEDTGMYYCAASTVITSESINRNLYQYWGQGTQVTVSS and report it.
Ans. 7.05
